Experiment: NOVARTIS: Cytotoxicity against human hepatocellular carcinoma cell line (Huh7)
Format: toxicity, cell-based, Huh-7
Conditions: Huh7 cells (hepatocellular carcinoma cell line)
measurementName: CC50

As a guide, the following entries are already answered.
# compound, assayValue
measured = [
    ("CCCCN1Cc2ccc(C(=O)NC(C)C)cc2N=C1c1ccc(F)cc1", "> 10 µM"),
    ("OCCc1cn(-c2ccccc2)c2ccccc12", "> 10 µM"),
    ("CCN(CC)CCN(Cc1cc2cc(OC)ccc2[nH]c1=O)C(=S)Nc1ccc(F)cc1", "51.4 µM"),
]

Enquiry: // query CC50 value for entry `N=c1c2c(n(Cc3cccc(Cl)c3)c3c1CCC3)CCCC2`
Return: > 10 µM

Enquiry: // query CC50 value for entry CCC(C)(C)C1CCc2c(sc(NC(=O)c3ccc(F)cc3)c2C(N)=O)C1 (stereo unspecified)
Return: > 10 µM

Enquiry: // query CC50 value for entry `CCOc1ccc2ncc(S(=O)(=O)c3ccc(OC)cc3)c(N3CCN(C)CC3)c2c1`
Return: > 100 µM
